test: Drug level in ICR mouse plasma at 150 mg/kg, po after 2.5 hrs by LC-MS/MS method; type: ADME, organism-based; parameters: dose 150 mg/kg, route oral
readoutLabel: concentration at 2.5 h (nM)
Return type: number; implicit unit nM.

Given the molecule "O=C(CCc1cc(Cl)c(Oc2ccncc2C(=O)N2CCN(C3CC3)c3ccccc32)cc1Cl)NCCOCCOCCOCCOCCOCCOCCOCCOCCNC(=O)CCc1cc(Cl)c(Oc2ccncc2C(=O)N2CCN(C3CC3)c3ccccc32)cc1Cl" , write its reported concentration at 2.5 h.
6.9

----------
assay: in vitro; conditions: human, Caco-2
Collected Papp A→B at 20 µM values appear next to each entry.
Return type: number; implicit unit ×10⁻⁶ cm/s.

Example molecules with recorded Papp A→B at 20 µM:
| smilesRepresentation | Papp A→B at 20 µM [×10⁻⁶ cm/s] |
| --- | --- |
| O=C(c1cnccc1Oc1cc(Cl)ccc1Cl)N1CCN(C2CC2)c2ccccc21 | 6.75 |
| C[C@H]1O[C@@H](O[C@H]2[C@@H](O)C[C@H](O[C@H]3[C@@H](O)C[C@H](O[C@H]4CC[C@@]5(C)[C@H](CC[C@@H]6[C@@H]5C[C@@H](O)[C@]5(C)[C@@H](C7=CC(=O)OC7)CC[C@]65O)C4)O[C@@H]3C)O[C@@H]2C)C[C@H](O)[C@@H]1O | 0.1 |

Next molecule, Papp A→B at 20 µM to be filled in.
Given the molecule "O=C(CCc1cc(Cl)c(Oc2ccncc2C(=O)N2CCN(C3CC3)c3ccccc32)cc1Cl)NCCOCCOCCOCCOCCOCCOCCOCCOCCNC(=O)CCc1cc(Cl)c(Oc2ccncc2C(=O)N2CCN(C3CC3)c3ccccc32)cc1Cl" , write its reported Papp A→B at 20 µM.
0.04

----------
test: AUC (0 to t) in Sprague-Dawley rat at 5 mg/kg, po by LC-MS/MS method; format: ADME, organism-based; design: dose 5 mg/kg, route oral; settings: plasma
readoutLabel: AUC(0-t) (ng·h/mL)
Return type: number; implicit unit ng·h/mL.

Given the compound "O=C(O)CNC(=O)CCc1cc(Cl)c(Oc2ccncc2C(=O)N2CCN(C3CC3)c3ccccc32)cc1Cl" , write its reported AUC(0-t).
23.9

----------
test: Cmax in Sprague-Dawley rat at 5 mg/kg, po by LC-MS/MS method; assay type: ADME, organism-based; set-up: dose 5 mg/kg, route oral; details: in vivo
readoutLabel: Cmax (ng/mL)
Return type: number; implicit unit ng/mL.

Given the compound "O=C(O)CNC(=O)CCc1cc(Cl)c(Oc2ccncc2C(=O)N2CCN(C3CC3)c3ccccc32)cc1Cl" , write its reported Cmax.
13.5

----------
assay: Drug level in ICR mouse bile at 150 mg/kg, po after 2.5 hrs by LC-MS/MS method; assay type: ADME, organism-based; parameters: dose 150 mg/kg, route oral; conditions: read-out: Drug uptake
readoutLabel: concentration at 2.5 h (nM)
Return type: number; implicit unit nM.

Given the compound "O=C(CCc1cc(Cl)c(Oc2ccncc2C(=O)N2CCN(C3CC3)c3ccccc32)cc1Cl)NCCOCCOCCOCCOCCOCCOCCOCCOCCNC(=O)CCc1cc(Cl)c(Oc2ccncc2C(=O)N2CCN(C3CC3)c3ccccc32)cc1Cl" , write its reported concentration at 2.5 h.
3.5
